# Target of assay: HRH3 (Homo sapiens, UniProt Q9Y5N1)
# Assay notes: cell-based
# Design: species or system HEK293; TRUPATH BRET2 G-protein dissociation; antagonist mode against agonist EC80
# Condition notes: Xanomeline, Assay=GoA; agonist mode
Quantity: pEC50
Give bare numbers, as −log10 of the molar value.

QUERY: Report value only: pEC50, HRH3 (Homo sapiens, UniProt Q9Y5N1), CCCCCCOc1nsnc1C1=CCCN(C)C1
RESULT: 5.38

###

# Target of assay: HTR1A (Homo sapiens, UniProt P08908)
# Assay notes: cell-based
# Parameters: species or system HEK293; TRUPATH BRET2 G-protein dissociation; antagonist mode against agonist EC80
# Condition notes: Xanomeline, Assay=Gi2; agonist mode
Quantity: pEC50
Answers are plain numbers, as −log10 of the molar value.

QUERY: Item CCCCCCOc1nsnc1C1=CCCN(C)C1 [Xanomeline] : provide pEC50
RESULT: 4.93

###

# Target of assay: DRD4 (Homo sapiens, UniProt P21917)
# Assay notes: cell-based
# Condition notes: Assay=Tango; agonist mode
Quantity: EC50 (µM)
Answers are plain numbers, in µM.

QUERY: Item CCCCCCOc1nsnc1C1=CCCN(C)C1 : provide EC50
RESULT: 4.8

###

# Target of assay: D1 (Homo sapiens)
# Construct: full-length receptor; HEK293 cell membranes
# Assay notes: competitive radioligand binding, HEK293 membranes
# Description: competitive radioligand binding, HEK293 membranes on D1
Quantity: pKi
Give bare numbers, as −log10 of the molar value.

QUERY: Item CCCCCCOc1nsnc1C1=CCCN(C)C1 [Xanomeline] : provide pKi
RESULT: 5.80

###

# Target of assay: UniProt:P47898
Quantity: pKi
Give bare numbers, as −log10 of the molar value.

QUERY: Item CCCCCCOc1nsnc1C1=CCCN(C)C1 : provide pKi
RESULT: 6.10

###

# Target of assay: SSTR4 (Homo sapiens, UniProt P31391)
# Assay notes: cell-based
# Condition notes: Assay=Tango; agonist mode
Quantity: EC50

QUERY: Item CCCCCCOc1nsnc1C1=CCCNC1 : provide EC50
RESULT: 931 nM

###

# Target of assay: UniProtKB Q9Y5N1
Quantity: pKi
One number for each entry, as −log10 of the molar value.

QUERY: Report value only: pKi, UniProtKB Q9Y5N1, CCCCCCOc1nsnc1C1=CCCN(C)C1
RESULT: 6.10

###

Quick note: these are Ki numbers for system: KOR (Homo sapiens, UniProt P41145)

entry_smiles=CCCCCCOc1nsnc1C1=CCCN(C)C1 quantity=Ki val="1780 nM"

Now for the compound whose Ki we want.
QUERY: Item CCCCCCOc1nsnc1C1=CCCNC1 : provide Ki
RESULT: 1020 nM

###

# Target of assay: HRH3 (Homo sapiens, UniProt Q9Y5N1)
# Assay notes: cell-based
# Design: species or system HTLA; PRESTO-Tango beta-arrestin2 recruitment, luciferase luminescence, concentration-response
# Condition notes: Assay=Tango; agonist mode
Quantity: pEC50
Numbers only, as −log10 of the molar value.

entry_smiles=CCCCCCOc1nsnc1C1=CCCNC1 quantity=pEC50 val=5.12

Now for the compound whose pEC50 we want.
QUERY: Item CCCCCCOc1nsnc1C1=CCCN(C)C1 : provide pEC50
RESULT: 5.02

###

# Target of assay: HTR1A (Homo sapiens)
# Sequence (P08908 1-422): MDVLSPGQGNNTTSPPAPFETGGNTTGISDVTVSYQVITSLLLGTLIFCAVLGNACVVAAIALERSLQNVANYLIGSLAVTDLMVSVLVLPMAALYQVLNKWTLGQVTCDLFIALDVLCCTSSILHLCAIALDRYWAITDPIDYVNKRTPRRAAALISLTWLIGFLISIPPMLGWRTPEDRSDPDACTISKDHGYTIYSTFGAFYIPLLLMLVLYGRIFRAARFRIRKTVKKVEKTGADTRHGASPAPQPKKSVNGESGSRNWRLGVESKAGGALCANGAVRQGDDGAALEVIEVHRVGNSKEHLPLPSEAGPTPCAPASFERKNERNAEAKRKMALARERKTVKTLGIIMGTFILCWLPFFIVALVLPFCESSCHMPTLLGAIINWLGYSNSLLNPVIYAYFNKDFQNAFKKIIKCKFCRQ
# Assay notes: cell-based
# Set-up: species or system HEK293; TRUPATH BRET2 G-protein dissociation; antagonist mode against agonist EC80
# Condition notes: Xanomeline, Assay=GoA; agonist mode
Quantity: EC50 (nM)
Give bare numbers, in nM.

QUERY: Item CCCCCCOc1nsnc1C1=CCCN(C)C1 [Xanomeline] : provide EC50
RESULT: 2340

###

Target protein (sequence): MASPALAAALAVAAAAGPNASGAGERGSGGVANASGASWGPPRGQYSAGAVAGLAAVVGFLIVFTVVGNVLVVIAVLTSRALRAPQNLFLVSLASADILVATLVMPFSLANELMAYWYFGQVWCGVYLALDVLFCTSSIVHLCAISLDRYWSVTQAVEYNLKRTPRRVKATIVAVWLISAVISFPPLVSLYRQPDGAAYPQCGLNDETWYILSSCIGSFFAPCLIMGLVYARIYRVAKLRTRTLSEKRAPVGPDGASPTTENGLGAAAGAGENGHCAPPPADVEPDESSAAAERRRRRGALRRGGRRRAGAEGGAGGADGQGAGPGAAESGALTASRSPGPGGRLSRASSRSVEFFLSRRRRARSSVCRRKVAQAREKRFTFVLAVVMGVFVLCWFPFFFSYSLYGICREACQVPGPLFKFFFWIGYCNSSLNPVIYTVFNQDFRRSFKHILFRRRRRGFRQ
Quantity: Ki (nM)
Answers are plain numbers, in nM.

molecule="CCCCCCOc1nsnc1C1=CCCN(C)C1 [Xanomeline]" unit_annotation=nM val=158

QUERY: Item CCCCCCOc1nsnc1C1=CCCNC1 [N-desmethylxanomeline] : provide Ki
RESULT: 209

###

# Target of assay: α1B (Homo sapiens)
# Construct: gene ADRA1B
# Assay notes: biochemical
# Design: species or system HEK293; PDSP competitive radioligand binding, membranes of transfected HEK293 cells, filtration, Ki by Cheng-Prusoff
pKi: −log10 of the molar value.
Quantity: pKi

QUERY: Item CCCCCCOc1nsnc1C1=CCCN(C)C1 [Xanomeline] : provide pKi
RESULT: < 5.00

###

# Target of assay: CHRM3 (Homo sapiens)
# Assay notes: cell-based
Quantity: pEC50
Answers are plain numbers, as −log10 of the molar value.

QUERY: Item CCCCCCOc1nsnc1C1=CCCNC1 : provide pEC50
RESULT: 6.42

###

Quick note: these are Ki numbers for system: 5-HT2A (Homo sapiens)
Write the quantity with the unit trailing the number.

Give measured Ki for every item shown.
1. CCCCCCOc1nsnc1C1=CCCN(C)C1 [Xanomeline]
2. CCCCCCOc1nsnc1C1=CCCNC1 [N-desmethylxanomeline]

RESULT:
1: 251 nM; 2: 537 nM

###

# Target of assay: HRH4 (Homo sapiens)
# Assay notes: cell-based
# Set-up: species or system HEK293; TRUPATH BRET2 G-protein dissociation; antagonist mode against agonist EC80
# Condition notes: N-Desmethyl Xanomeline, Assay=Gi1; agonist mode
Quantity: EC50

QUERY: Item CCCCCCOc1nsnc1C1=CCCNC1 : provide EC50
RESULT: 4.87 µM

###

# Target of assay: 5-HT3 (Homo sapiens)
# Construct: gene HTR3A
# Sequence (P46098 1-478): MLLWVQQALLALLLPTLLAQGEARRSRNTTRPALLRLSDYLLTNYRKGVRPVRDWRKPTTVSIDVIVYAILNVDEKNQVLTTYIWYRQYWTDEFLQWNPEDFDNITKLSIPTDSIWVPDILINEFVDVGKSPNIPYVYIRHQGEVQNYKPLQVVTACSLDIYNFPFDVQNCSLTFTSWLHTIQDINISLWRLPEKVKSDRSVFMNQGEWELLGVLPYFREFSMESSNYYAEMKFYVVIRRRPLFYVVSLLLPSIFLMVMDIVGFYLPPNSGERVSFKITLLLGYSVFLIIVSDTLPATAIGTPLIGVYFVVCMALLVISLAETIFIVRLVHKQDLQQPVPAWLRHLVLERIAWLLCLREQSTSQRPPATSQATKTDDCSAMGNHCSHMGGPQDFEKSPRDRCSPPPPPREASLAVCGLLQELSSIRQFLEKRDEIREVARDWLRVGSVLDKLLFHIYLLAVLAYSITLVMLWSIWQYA
# Assay notes: biochemical
# Design: species or system HEK293; PDSP competitive radioligand binding, membranes of transfected HEK293 cells, filtration, Ki by Cheng-Prusoff
pKi: −log10 of the molar value.
Quantity: pKi

QUERY: Item CCCCCCOc1nsnc1C1=CCCN(C)C1 [Xanomeline] : provide pKi
RESULT: < 5.00

###

# Target of assay: SERT (Homo sapiens)
# Construct: gene SLC6A4
# Assay notes: biochemical
# Set-up: species or system HEK293; PDSP competitive radioligand binding, membranes of transfected HEK293 cells, filtration, Ki by Cheng-Prusoff
Quantity: Ki

QUERY: Item CCCCCCOc1nsnc1C1=CCCN(C)C1 : provide Ki
RESULT: > 10 µM
